Data provenance is patent US20210230570.

target: Factor X (FX), P00742
Sequence (P00742 whole entry, looked up): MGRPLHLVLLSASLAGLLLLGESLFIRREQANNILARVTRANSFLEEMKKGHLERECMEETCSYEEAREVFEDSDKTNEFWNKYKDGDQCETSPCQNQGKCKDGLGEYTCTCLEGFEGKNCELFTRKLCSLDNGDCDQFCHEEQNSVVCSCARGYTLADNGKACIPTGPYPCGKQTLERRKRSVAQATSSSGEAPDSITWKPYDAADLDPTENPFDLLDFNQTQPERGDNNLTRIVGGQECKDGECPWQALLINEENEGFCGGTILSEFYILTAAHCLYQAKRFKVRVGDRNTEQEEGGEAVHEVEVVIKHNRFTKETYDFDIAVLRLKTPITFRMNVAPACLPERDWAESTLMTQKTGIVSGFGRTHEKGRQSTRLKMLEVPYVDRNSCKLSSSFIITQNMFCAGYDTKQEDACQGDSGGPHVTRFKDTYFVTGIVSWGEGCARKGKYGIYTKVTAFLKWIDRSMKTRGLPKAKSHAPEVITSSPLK
Each record here notes measured KM of FX activation by FIXa in the Xase complex (FVIIIa, PC/PS vesicles, Ca2+).
Record the value in µM, omitting the unit from your answer.

Look over these answered cases.
protein	recorded.result
FIXa variant R318Y/R403E/E410N (mature FIX numbering) (protein) chain 1: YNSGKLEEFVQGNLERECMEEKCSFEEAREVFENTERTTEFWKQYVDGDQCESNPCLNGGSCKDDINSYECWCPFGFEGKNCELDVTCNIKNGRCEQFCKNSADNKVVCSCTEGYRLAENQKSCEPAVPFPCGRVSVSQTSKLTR chain 2: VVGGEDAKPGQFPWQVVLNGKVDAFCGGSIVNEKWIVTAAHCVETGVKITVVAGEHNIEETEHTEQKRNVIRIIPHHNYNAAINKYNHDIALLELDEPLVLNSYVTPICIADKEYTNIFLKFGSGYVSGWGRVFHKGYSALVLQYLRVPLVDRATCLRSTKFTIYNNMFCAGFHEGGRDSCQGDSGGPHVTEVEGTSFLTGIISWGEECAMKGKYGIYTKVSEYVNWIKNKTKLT	0.0942
FIXa variant R318Y/R338E/R403E/E410N (mature FIX numbering) (protein) chain 1: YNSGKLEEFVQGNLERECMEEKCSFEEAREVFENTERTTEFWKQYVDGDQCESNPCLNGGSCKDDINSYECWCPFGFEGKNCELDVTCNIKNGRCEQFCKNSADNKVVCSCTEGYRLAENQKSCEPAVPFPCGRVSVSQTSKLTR chain 2: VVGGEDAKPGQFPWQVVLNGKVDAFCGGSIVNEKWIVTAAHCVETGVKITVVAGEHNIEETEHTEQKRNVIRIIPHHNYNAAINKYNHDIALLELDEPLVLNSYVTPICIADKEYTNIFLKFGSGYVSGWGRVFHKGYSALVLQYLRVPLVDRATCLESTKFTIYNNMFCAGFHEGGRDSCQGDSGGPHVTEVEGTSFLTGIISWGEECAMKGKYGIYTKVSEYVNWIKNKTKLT	0.0432
FIXa variant D203N/F205T/K228N (mature FIX numbering) (protein) chain 1: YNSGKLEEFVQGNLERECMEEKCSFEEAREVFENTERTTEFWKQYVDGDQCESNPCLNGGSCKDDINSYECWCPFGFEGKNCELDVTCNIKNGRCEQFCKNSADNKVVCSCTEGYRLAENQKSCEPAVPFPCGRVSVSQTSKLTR chain 2: VVGGEDAKPGQFPWQVVLNGKVNATCGGSIVNEKWIVTAAHCVETGVNITVVAGEHNIEETEHTEQKRNVIRIIPHHNYNAAINKYNHDIALLELDEPLVLNSYVTPICIADKEYTNIFLKFGSGYVSGWGRVFHKGRSALVLQYLRVPLVDRATCLRSTKFTIYNNMFCAGFHEGGRDSCQGDSGGPHVTEVEGTSFLTGIISWGEECAMKGKYGIYTKVSRYVNWIKEKTKLT	0.0399

As a next step, examine the protein that follows.
Incoming: Return reported KM of FX activation by FIXa in the Xase complex (FVIIIa, PC/PS vesicles, Ca2+); argument: FIXa variant D104N/K106S/R318Y/R338E/R403E/E410N (mature FIX numbering) (protein) chain 1: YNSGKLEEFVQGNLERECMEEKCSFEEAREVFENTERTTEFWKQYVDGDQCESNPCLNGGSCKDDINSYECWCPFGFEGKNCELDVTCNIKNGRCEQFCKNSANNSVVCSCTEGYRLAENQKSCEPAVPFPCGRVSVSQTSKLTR chain 2: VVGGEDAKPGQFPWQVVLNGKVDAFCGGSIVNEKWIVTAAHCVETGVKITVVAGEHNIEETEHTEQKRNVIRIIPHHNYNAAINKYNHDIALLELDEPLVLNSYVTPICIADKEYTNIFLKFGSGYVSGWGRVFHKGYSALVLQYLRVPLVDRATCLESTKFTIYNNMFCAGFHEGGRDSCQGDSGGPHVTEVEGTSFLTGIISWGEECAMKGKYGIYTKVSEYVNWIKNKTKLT
Outgoing: 0.0385
